organism: Homo sapiens; assay: Selectivity ratio of IC50 for human recombinant MAOA to IC50 for human recombinant MAOB
observation type: Ratio IC50

Use the examples below as a reference point.
CCN(CC)c1ccc(/C=C2\Cc3cc(O)c(O)cc3C2=O)cc1	5.36
CN(C)c1ccc(/C=C2\Cc3cc(O)c(O)cc3C2=O)cc1	3.53

P = CCCN(C)c1ccc(/C=C2\Cc3cc(O)c(O)cc3C2=O)cc1
Q = CCN(C)c1ccc(/C=C2\Cc3cc(O)c(O)cc3C2=O)cc1
# return whichever of P and Q has the smaller Ratio IC50 Provide the label of your selected option as the answer.
Q
(Q: 3.29, P: 5.03)
